Cited source for all entries: ChEMBL document CHEMBL1137507

assay: Oral bioavailability in dog; format: ADME, organism-based, Canis lupus familiaris; details: in vivo
Measured parameter: bioavailability (%)
Give the quantity in %, number only.

### Prompt Which bioavailability is reported for this compound? CC(C)(N)C(=O)N[C@H](COCc1ccccc1)c1nnnn1CCC#N
### Response 76

====

biological target: Growth hormone secretagogue receptor type 1 (Homo sapiens, UniProt Q92847); test: Agonist activity at human GHS receptor expressed in H4 glioma cells assessed as intracellular calcium concentration by FLIPR assay
Sequence (Q92847 whole entry): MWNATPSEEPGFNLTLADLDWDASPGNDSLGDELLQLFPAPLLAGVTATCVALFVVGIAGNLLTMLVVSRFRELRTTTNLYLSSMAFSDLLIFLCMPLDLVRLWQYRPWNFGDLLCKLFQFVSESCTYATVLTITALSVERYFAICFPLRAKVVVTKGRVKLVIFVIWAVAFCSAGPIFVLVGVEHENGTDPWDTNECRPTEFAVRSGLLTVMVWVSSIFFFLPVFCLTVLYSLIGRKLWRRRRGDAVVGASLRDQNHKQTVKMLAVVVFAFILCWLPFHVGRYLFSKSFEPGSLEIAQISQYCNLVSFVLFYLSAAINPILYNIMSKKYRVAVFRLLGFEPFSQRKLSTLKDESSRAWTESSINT
Measured parameter: pEC50
Please keep in mind that pEC50 is minus log10 of the molar concentration; only the number is needed.

Example results:
smiles_str=CC(C)(N)C(=O)N[C@H](COCc1ccccc1)c1nnnn1Cc1cccc(NS(C)(=O)=O)c1 endpoint_result=6.94
smiles_str=CC(C)(N)C(=O)N[C@H](COCc1ccccc1)c1nnnn1Cc1ccccc1 endpoint_result=7.00
smiles_str=CC(C)(N)C(=O)N[C@H](COCc1ccccc1)c1nnn(CCc2ccccc2NS(C)(=O)=O)n1 endpoint_result=5.39

# context switch: different molecule, same pEC50
### Prompt May I ask what pEC50 has been recorded for CC(C)(N)C(=O)N[C@H](COCc1ccccc1)c1nnnn1CCC(=O)NCCc1ccccc1 ?
### Response 7.57
